# target system: Glucocorticoid receptor (Homo sapiens)
# Sequence (P04150 whole entry): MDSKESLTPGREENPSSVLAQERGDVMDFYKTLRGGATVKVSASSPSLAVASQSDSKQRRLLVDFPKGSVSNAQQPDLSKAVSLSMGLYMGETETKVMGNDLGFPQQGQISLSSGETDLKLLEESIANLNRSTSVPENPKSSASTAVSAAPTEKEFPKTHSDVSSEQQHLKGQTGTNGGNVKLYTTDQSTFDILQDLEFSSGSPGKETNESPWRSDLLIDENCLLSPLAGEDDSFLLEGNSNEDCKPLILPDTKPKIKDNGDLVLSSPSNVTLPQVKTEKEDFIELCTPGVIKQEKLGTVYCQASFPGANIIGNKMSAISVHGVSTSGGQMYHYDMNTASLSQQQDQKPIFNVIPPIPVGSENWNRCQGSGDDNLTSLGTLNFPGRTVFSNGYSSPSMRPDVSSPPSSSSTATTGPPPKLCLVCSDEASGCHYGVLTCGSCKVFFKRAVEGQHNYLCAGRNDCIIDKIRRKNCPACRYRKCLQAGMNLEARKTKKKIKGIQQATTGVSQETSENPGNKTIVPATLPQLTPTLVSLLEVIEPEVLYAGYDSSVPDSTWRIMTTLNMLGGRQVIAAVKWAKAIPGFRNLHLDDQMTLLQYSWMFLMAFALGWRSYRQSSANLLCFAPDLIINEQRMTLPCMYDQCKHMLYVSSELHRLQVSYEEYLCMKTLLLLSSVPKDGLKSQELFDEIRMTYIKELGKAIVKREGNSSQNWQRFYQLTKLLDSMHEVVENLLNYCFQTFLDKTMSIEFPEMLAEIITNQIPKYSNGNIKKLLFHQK
Glucocorticoid receptor (Homo sapiens) IC50, compiled from various sources.
Provide a numeric answer, followed by its unit.

Recorded results for 3 molecules are shown here.
CCCCC(O)c1ccsc1/C=C1\Oc2ccc(O)c(OC)c2-c2ccc3c(c21)C(C)=CC(C)(C)N3 (centres undefined) : 0.9 nM
COc1c(O)ccc2c1-c1ccc3c(c1/C(=C/c1sccc1[C@@H](O)C(F)(F)F)O2)C(C)=CC(C)(C)N3 : 0.6 nM
Cc1c(NS(C)(=O)=O)cccc1N(Cc1ccc(Oc2ccc(Br)c(OCC(=O)O)c2)cc1)Cc1ccc(F)cc1F : 330 nM

Fill blank: measured IC50 of the molecule CC(C)[C@H](NC(=O)C(C)(F)F)[C@H](Oc1ccc2c(cnn2-c2ccc(=O)n(C)c2)c1)c1ccccc1 is ____.
158 nM
